Assay Text: soluble on expression in E. coli; label from the status in PepcDB or PDB records

Primary Sequence	soluble on expression in E. coli
MPFVVIITGIPGVGKSTITKLALQRTRAKFKLINFGDLMFEEALKLKLVKHRDEMRKLPLEVQRELQMNAAKKIAEMAKNYPILLDTHATIKTPHGYLLGLPYEVIKILNPNFIVIIEATPSEILGRRLRDLKRDRDVETEEQIQRHQDLNRAAAITYAMHSNALIKIIENHEDKGLEEAVNELVKILDLAVKEYA	soluble
MGSDKIHHHHHHTQRWLSGNISNFQYLMHLNTLAGRCYNDLSQYPIFPWVLADYTSSQLDFNNISTFRDFSKPMGAQSPDRLEQFLKRFREWDDPSGETPPYMYGTHYSSAMIVVSYLVRLEPFTQQFLSLQGGHFDLADRMFHSVGDAWTSASRNNMADVKELIPEFFTLPEMFTNTNHFDLGVKQNGIHVNDVLLPAWCHGDPREFIRLHRQALESDYVSSHLHEWIDLIFGYKQNGEEAVKNSNLFHHLFYEGSVDFERIDDPLTRNATIGFVNNFGQIPTQLFKKPHPQK	not soluble
MGSDKIHHHHHHRECVQTSLSWRNDTTGIWETAGWWNSANVLTATIRYGAVTKDPAIPSVIEDVFEKARHYQVGVDSTGTPRYCDNFINDYYDDEGWWALAWIEASKLTGEKKYLDMAEIIFDDMTTGWSDACGGGIFWKKNPLHYKNSIANNLFSLTAIRLYKATQNPAYLDWFKKNVDWYMRTGMINTNIYQIEDGTKDDCTPNRNAHYTYNQGVAIAVLAEMYLQTNDKSYLELAEKIADATITTQLITDEGILREMKPEIDDSNDGVQFKGIFIRHLAFLYEVTKNPAYKDFILKNAESIITKDYDPTSKSFGCYWYGPFHKENSAANACALECVIEAYDLTK	not soluble
MGSDKIHHHHHHMGDIQYTVRDDLKLFVNSIMVQQSADGNARFRLPLYADGYPGIMFQQSESGFFRFPESKQLSEFFLYGQTLEPISLEVQGTYRFVVFQLYPFASKYLLGIDPKELNDACYDLMQFQYIDMEVYSKQLTAAPDPESLIACMSDGVAALIGLNKPPHNDRIQQAIKQIIETEGRMRISDLSEAVCLSERTLERNFLGEVGLSPKQFAKIIQFQSSLTKLTDANAETLTAIGLDSGFTDQSHFIRVFKQYTGQTPSQYIKNQTR	not soluble
RRRPLSCDAASQAGSNYPRCWNCGGPWGPGREDRFFCPQCRALQAPDPTRDYFSLMDCNRSFRVDTAKLQHRYQQLQRLVHPDFFSQRSQTEKDFSEKHSTLVNDAYKTLLAPLSRGLYLLKLHGIEIPERTDYEMDRQFLIEIMEINEKLAEAESEAAMKEIESIVKAKQKEFTDNVSSAFEQDDFEEAKEILTKMRYFSNIEEKIKLKKIPL	not soluble
MKKIALAVLSLGLLVSGCSAGADKDEKVAEKSGKAKEQSVVPKYAISDEYYKTTIPFDGGNARGLVVQGLNSRLDIDEFETGLMRIAKESFSTKDNFLKGGKALDTQTIQMLVKRKRTDAEQKELEDKLKKDAVKFPNIGLNPALGTGSESLEVKNKKNPIYISNILEHDYYVKKGDNGEERVGMVVGLAMNSVQYFNEEHGYPREAAIPDEKMLAEGKKMAQEILKVIHQKEPETKNIPITFAIYRQAPKSSLVPGNFVSYANVEKGSETVEDWQQINEKYYLFPSEQAKTDNKREDLARVSNFKAKLSDYFQGDYTAVIGTGMYRDDELREMKLDIPVQFNGKAEIVGFTQYVAGLVMEYFPNYMKVQVTIKSVERPEAIIIREAKQDEPLVKILD	not soluble
MALVKEVLVVLNRLSPFELQESWDNSGLNVGSENSEFSEIVACLEITLKIALNAPQNALIITHHPLIFKPLKTLNDEIYPGNILKILIQKNVSVISMHTNFDKTHLNKHFAHALLEFDGLVEKGLMLVKENANIEFDALVKKIKSSLGVGSLACVKSSQTIKDLAFVCGSGASMFSSLKAQSCLITGDVKYHDAMIAQSLGISLIDATHYYSERGFALIVAEILHSFNYLVTIENFKNPLQIILEHHHHHH	soluble
MNNIWWQTKGQGNVHLVLLHGWGLNAEVWRCIDEELSSHFTLHLVDLPGFGRSRGFGALSLADMAEAVLQQAPDKAIWLGWSLGGLVASQIALTHPERVQALVTVASSPCFSARDEWPGIKPDVLAGFQQQLSDDFQRTVERFLALQTMGTETARQDARALKKTVLALPMPEVDVLNGGLEILKTVDLRQPLQNVSMPFLRLYGYLDGLVPRKVVPMLDKLWPHSESYIFAKAAHAPFISHPAEFCHLLVALKQRV	soluble
MGSDKIHHHHHHMKIGIITICKVNNYGAELQAFATQKKLEQMGHNAEIINYLYYKDWHFKDTPLSQPFVPLDMKGKLSYWIKYRLMSWVVNKVLPIFNGNMRRRLHNYQSFIDSERFSAQYKSMDELYKTYPKYDIYMVGSDQVWNPSASSSIEPYFLTFAPKNAPKVTYASSFGVASIAPNLSKRYAKLLNNLDTIAVREQSGVELVKQLTGREAKLVVDPTLLLSKADWEPYMKPLAKISTQYILIYQLFPSQTVIDVALKIGKEKNLPVYNICKRAYGMKKIVGINNILDAGPSEFLWLIANATCMVTNSFHGTAFSVNFATPFCCVLNRKRKNNGRMISFLDKVDMSNRILYEDSIAELNVMTACSEVTNNHLRLLVNNSIDYLKSIIENKEQKC	not soluble
SNAMNVNQIVRIIPTLKANNRKLNETFYIETLGMKALLEESAFLSLGDQTGLEKLVLEEAPSMRTRKVEGRKKLARLIVKVENPLEIEGILSKTDSIHRLYKGQNGYAFEIFSPEDDLILIHAEDDIASLVEVGEKPEFQTDLASISLSKFEISMELHLPTDIESFLESSEIGASLDFIPAQGQDLTVDNTVTWDLSMLKFLVNELDIASLRQKFESTEYFIPKSEKFFLGKDRNNVELWFEEV	soluble
